Data credit: ChEMBL document CHEMBL5233274

Tested on: Bacillus subtilis
Assay: Antibacterial activity against Bacillus subtilis assessed as inhibition of bacterial growth measured per 100 uL incubated for 24 hrs by agar well diffusion method
Format: functional
Listed next: entries and their corresponding MIC.
Answer in µg, number only, no unit symbol.

// below: answered compounds
O=C1NC(Cc2ccc(Nc3nc(-c4ccc5ccccc5c4)cs3)cc2)CO1 (stereo not given) : 25
O=C1NC(Cc2ccc(Nc3nc(-c4ccc(Cl)cc4)cs3)cc2)CO1 (stereo not given) : 6.25
O=C1NC(Cc2ccc(Nc3nc(-c4ccc(Br)cc4)cs3)cc2)CO1 (stereo not given) : 6.25

Notebook: O=C1NC(Cc2ccc(Nc3nc(-c4ccc([N+](=O)[O-])cc4)cs3)cc2)CO1 (stereo not given) , MIC read as 6.25

Notebook: O=C1NC(Cc2ccc(Nc3nc(-c4cccc(Cl)c4)cs3)cc2)CO1 (stereo not given) , MIC read as 12.5
